Experiment: Half life of compound in pH 7.4 phosphate buffer at 40 mM in presence of TECP or cysteine by methylene blue dye based UV-Vis spectrophotometric method
Assay type: physicochemical
Details: phosphate buffer with TECP or cysteine
quantity_kind: half-life at 40000 µM (min)
// note: answer is a bare numeric in min

For this molecule ( CC(C)Cc1ccc(C(C)C(=O)Oc2ccc(C(N)=S)cc2)cc1 (stereo not drawn) ), measured half-life at 40000 µM is 20.1

// half-life at 40000 µM lookup, molecule = CC(=O)Nc1ccc(OC(=O)CCCCC2CCSS2)cc1 (stereo not drawn) , result: 14.1

The measured half-life at 40000 µM associated with CC(C)Cc1ccc(C(C)C(=O)Oc2ccc(-c3cc(=S)ss3)cc2)cc1 (stereo not drawn) reads 1.4
